Reference source for all entries: the supplement of paper PMC12455559

- measurement.notes: purified protein yield per well (BCA); higher = higher soluble expression
property.measured: purified protein yield per well

Record excerpt, results attached:
DGPYDVDWIYESDGLRNGPYYLGATLYYPINTSESLASIVIVPGWGMPESSIQNWGPFFASWGIIAMTIGTNNPYDWPEERAEALLDAIETIKQENVRSDSPVYGMVDINSFAVCGYSMGGGGAQWAATIDSYLDAVVALNPALAIYDTINCTDPEFDYYCLVPEHLNHSTPVLIITGENEDANGTSATGYNHYEYTPNATDKMFFQVSNSGHEAAYGPYGANGEVGEKSMQWLKFHLFCLEFLNIIKLQRKLKMI [TEP020]; < 25 µg
DQVGQAPTADNITGNGSFATTSAAITNQTGFGGGTVYYPTADGTYPVVAIVPGFAATWSQISWLGPRVASWGFVVVGVDTTSVFDSPQQRGDEFLAALNWAANSAPASTRGKVDGTRRGVAGWSMGGGGTLEAMAKDTTLKAGVPLAPWDTTQDWSKIGKPVFIVGAQNDLIAPPASHAIPFYNSLAGPKSYLELAGADHFFPISANPTVSRAVVSWFKRFVSADDRFAPFTCGFAGAAVSAFRTTAC [TEP103]; 45.9 µg
WLTSAASPVRARVDANRLGVGGHSMGGGGAIEAASEMPSLKASIGFEPWNGIGSWPGVRVPTMIQGAQNDNIAPVAQHSEPFYNSMTNAPEKAYAEFTGASHFFSGQAGPATTRLSVSWYKRFLDNDTRYDQFLCPGPRSPEVVEYRNTCPLTTPGGGGGTTTTTGPGTTTTTRPTTTTTAPPAQCQWWEWWCWLGWG [TEP046]; < 25 µg

Identify measured purified protein yield per well associated with DQIGQAPTASNITGDGSFAVTSSAVSGQTGFGGGTVYYPTQTGTYPVVAIMPGFLELWDAIKWMGPRLASWGYVVVGVNPNSVFDLPDSRGSQLLAALNWAVGSAPSAVQSRADGTRRGVVGYSMGGGGTLEALSRDTSGKVLAGVAFSPWDTNQNWSTVRQPEFIVGAQNDTVAPPAQHAIPFYNSLAGPKTYVELAGADHLWPTSDNPTGSRAMVSWLKRWLNSDSRFTPFTCGFTGSAISASMSNAC [ESM047]
48.3 µg

Consider the sequence ATNPYQRGPAPTAESISAERGSFAVADSAVSADSVSGFGGGTVYYPTDTSAGKFGAVAIAPGFTANEWSLAWLGPRLASHGFVVFIIDTITTGDQPAQRGDELRAALSYLTTSSPVRDRVDPARLGVMGHSMGGGGALQAAEDDPSIRAVIPMTPYDLDSPSPKVTAPTLIIGAQDDTIAPVAYHARPFYESLTSARAKEYIELRNQSHFAPNYPNATIASASIAWLKRYIDDDQRYQPFACPAQVGSWLISDFRSAC [DP034] and give its recorded purified protein yield per well.
180 µg

Note purified protein yield per well for the sequence shown: VENGPAPTLAALKADGPYAITSQAVPGNGFGAGTVYVPTAAGKYALVAICPGFVSAQSTMTDMAKRLATHGFVVVAISTNTLLDFPPSRASQLLAALKATASLTSGPVVGKIDTSRQAVSGWSMGGGGTLEAAGSTPGLMAAVAFAPWDTSTTKMKVDKVPAAIIGGSSDVIAPVSSHSQPFYNAIPSTTPKLLAVISGASHFFPTTASEPASYTNISWMKRFADGDTRYSQFLNGNDAALSSFTSNGPF [ESM092]
< 25 µg

----------
Recorded PET hydrolysis, one value per entry.
- measurement.notes: PET hydrolysis, aromatic products released after 48 h (umol product/mg enzyme); higher = more PET depolymerization activity
- condition.label: substrate: aFilm; 40 °C; pH 4.5

ADNPYQRGPDPTRASVAAVNGPFVNTSVSVPTGYGFNGGRIYYPTDTSQGTFGAIAISPGYTALFSAELAWMGPWLASHGFVVIGIETNSRNDFDTARGTQLLAALDYLTQQSPVRDRVDPNRLAVSGHSMGGGGALSAAIRRSSLKAAVGITPYSPSQNLANDRVPTMVISGQADTVVTPSYALGLYNSLPASTESVYLEVAGGDHGFMVGRSNPVLIRTMLPFLKMFVDNDSRYSQFLCPLLDSSGVVTYRSTCPLLPTNPTTPPPTGTPTPTPTSTPTPTPTPTTPPPSGSANE [ESM091]; < 3

State, in one line, measured PET hydrolysis of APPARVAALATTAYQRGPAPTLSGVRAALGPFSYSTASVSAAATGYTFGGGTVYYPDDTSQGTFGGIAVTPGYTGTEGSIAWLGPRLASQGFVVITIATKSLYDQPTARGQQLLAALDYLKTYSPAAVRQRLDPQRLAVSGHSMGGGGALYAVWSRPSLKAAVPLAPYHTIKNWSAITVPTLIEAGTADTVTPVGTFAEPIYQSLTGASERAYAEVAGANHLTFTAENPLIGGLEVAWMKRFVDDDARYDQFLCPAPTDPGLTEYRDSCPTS [TEP101]
< 3

----------
- measurement.notes: purified protein yield per well (BCA); higher = higher soluble expression
Below is a list of entries, each paired with its recorded purified protein yield per well value.

APGPSAPCADCSRGPNPTVASLQSRSGPFTVSTFSVSGYLRGFGNSTVHYPTNATGKMGAIAVIPGYLSYEDSIRWWGPRLASHGFVVITMNTNTIYDQPDSRATQLSRALDYVIEQSNSRSSPISGKVDSTRLGAIGWSMGGGGSLKLSTERSLNAIIPQAPYYAGLNRFNTINTPTMILACSADVVAPVASHASPFYNRIPDATPKAFLEIYGGSHFCANSGYPNEDLLGMYGISWMKRFIDFDSRYSQFLCGPNHAADLRVSEYRENCNY [ESM165]; < 25 µg

Switching to the query record.
Answer with the recorded purified protein yield per well of APQAPENPYQRGPAPTEQSIVADRGSFEVERISVGSWSGPGFNKGTIYAPKDRSQGTFGAIAVSPGFVSPEYLISWYGERLASRGFVVMTIETTTLYDQPAQRGDQLLAALDYVVSDDSPVRDRVDPNRLAVMGHSMGGGGTLHAVKERKSLKAAVPLMPWNLFTDWGDVQTPTMIIGAQNDLIASVGLHSEPFYNSLRSAREKAYLEMDGAGHLVANSPNDTIAKYTIAWMKRYVDNDTRYEQFLCPAPSRDRNISEYRDTCPGS [DP015] only.
< 25 µg

----------
- measurement.notes: PET hydrolysis, aromatic products released after 48 h (umol product/mg enzyme); higher = more PET depolymerization activity
- condition.label: substrate: cryPow; 60 °C; pH 5.5
property.measured: PET hydrolysis
Could you respond with only the numeric value?

Could you please provide reported PET hydrolysis for NPYERGPDPTTASIEASRGSFATSTVTVSRLAVSGFGGGTIYYPTTTTAGTFGAISIAPGFTATQSSMAWLGPRLASQGFVVFTIDTITTSDQPDSRGRQLLASLDYLTQQSSVRSRIDSSRLGVVGHSMGGGGTLEAARSRPSLQAAVPLTGWNLTKNWSTLRVPTLVVGAQSDTIAPVASHSIPFYTSLPSTLDRAYLELRGASHFAPNTSNTTIAKYTLSWLKRFIDNDTRYEQFLCPIPSSSLSISDYRGNCPHNG [ESM167] ? Thanks!
10.5

----------
- measurement.notes: PET hydrolysis, aromatic products released after 48 h (umol product/mg enzyme); higher = more PET depolymerization activity
- condition.label: substrate: aFilm; 40 °C; pH 4.5
property.measured: PET hydrolysis

Give the reported PET hydrolysis for this sequence. ADNPYQRGPDPTPASVSANRGTFATAQISVPAGNGFGGGVIYHPTDTSQGTFGAIAVVPGYTATWAAEGAWMGHWLASFGFVVIGIDTNSRNDWDTARGTQLLAALDYLTQRSPVRDRVDANRTAVMGHSMGGGGAMHAALQRPSLKAAIGLAPFSPSQNLTTTRVPTMLLAGQSDTTTTPASILNLYNGIPAATEKAYLELTGAGHGFPTSNNPTMMRNVIPWLKIFVDSDTRYTQFLCSLSNWDGIRAYQSTCPLVPSPVPTTTSTTSTTTTISTTTTTPAPGDACSATYRTTNSWPGGYQAEVTVTAGNTAVNGWNVQWTLGSGQTVTQVWNGTLNVSGSTASVRNASYNGSLQANTSTTFGFIGGGTPPTSSLSCTSP [ESM035]
< 3

----------
- measurement.notes: PET hydrolysis, aromatic products released after 48 h (umol product/mg enzyme); higher = more PET depolymerization activity
- condition.label: substrate: cryPow; 60 °C; pH 4.5
Items are presented alongside their recorded PET hydrolysis.

Solved cases (2 shown):
ADNPYQRGPDPTPASVGASRGTFATAQVSVPAGNGFGGGVIYYPTDTSQGRFGAVAVVPGYTATWAAEGAWMGPWLASFGFVVIGIDTNSRNDWDTARGTQLLAALDYLTQRSSVRDRVDASRAAVMGHSMGGGGAIYAALQRPSLKTTVGLAPFSASQTLNNMRVPTMLLAGQNDGTTTPASIRNYYGQVPSGVEKAYLELTGAGHGFPTSNNPTMMRNVIPWLKIFVDSDTRYTQFLCPLSNTNGIRSYESTCPLVPSPVPTDPPTSAPPTSTPPTTPPPTTPPPTTPAPGGPCAASYRTVNSWSGGFQGEVTVRAGGAPINGWTVRWTLGGGQSISQVWNGTLSTSGSTATVRNAPYNGSLPASGSTTFGFIANGSPSAPTLTCASP [TEP013]; < 3
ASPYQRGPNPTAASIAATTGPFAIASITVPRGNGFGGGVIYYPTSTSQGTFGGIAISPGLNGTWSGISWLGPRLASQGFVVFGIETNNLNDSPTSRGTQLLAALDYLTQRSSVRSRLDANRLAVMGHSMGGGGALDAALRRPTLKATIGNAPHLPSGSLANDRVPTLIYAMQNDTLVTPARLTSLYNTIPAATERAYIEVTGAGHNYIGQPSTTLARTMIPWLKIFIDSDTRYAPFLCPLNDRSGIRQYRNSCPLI [ESM128]; < 3

Then there is this sequence:
Return PET hydrolysis for the following sequence: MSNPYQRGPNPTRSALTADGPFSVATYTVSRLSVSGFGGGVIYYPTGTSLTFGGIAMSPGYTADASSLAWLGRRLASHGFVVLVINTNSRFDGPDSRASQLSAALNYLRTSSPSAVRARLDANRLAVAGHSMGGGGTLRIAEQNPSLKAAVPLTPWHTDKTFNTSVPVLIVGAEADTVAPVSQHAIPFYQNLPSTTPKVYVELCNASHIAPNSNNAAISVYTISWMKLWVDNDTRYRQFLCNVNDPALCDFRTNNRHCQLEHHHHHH [LCC-ICCG]
56.2
